Would you mind telling me the reported IC50 of each entry?
# target or test system: Prothrombin (Homo sapiens)
# assay info: Thrombin 1536 HTS Dose Response Confirmation. [Related pubchem assays: 1046 (Thrombin 1536 HTS; hits were confirmed in this assay)]
# Assay type: functional
Activity calls are given as the source filed them. Rule as the data show it: actives have a measured IC50 and inactives only a lower limit.

QUERY: Return reported IC50. Input molecule: `Cn1c(=O)c2cc(NC(=O)c3ccccc3Cl)c(=O)oc2n(C)c1=O`
RESULT: 0.321 µM (active)

QUERY: Retrieve IC50 measured for `Cn1c(CN2CCCCC2)nc2cc(NS(=O)(=O)c3ccc(Cl)cc3)ccc21` and print it.
RESULT: 1.06 µM (active)

QUERY: For `COCCNC(=O)Cn1nc(C(F)(F)F)cc1C` , write its IC50.
RESULT: > 50 µM (not active)

QUERY: Supply reported IC50 belonging to this molecule: `Cc1ccc(C(=O)n2cnnc2N)cc1`
RESULT: 4.05 µM (active)

QUERY: Note IC50 for the molecule shown: `C/C(=N\Nc1ccc(Cl)c(C(=O)O)c1)c1cccc([N+](=O)[O-])c1`
RESULT: > 50 µM (not active)

QUERY: Read the entry `O=C(O)c1ccc(/C=N/NC(=O)c2ccc(F)cc2)cc1` and write its reported IC50.
RESULT: > 50 µM (not active)

QUERY: Report IC50, nothing else, for this molecule: CCOc1ccc(C2CC(=O)N(Nc3ccc([N+](=O)[O-])cc3[N+](=O)[O-])C2=O)cc1 (configuration not stated)
RESULT: > 50 µM (not active)
